- subject of test: CD3E (human, UniProt P07766 23-207)
- Sequence (P07766 23-207): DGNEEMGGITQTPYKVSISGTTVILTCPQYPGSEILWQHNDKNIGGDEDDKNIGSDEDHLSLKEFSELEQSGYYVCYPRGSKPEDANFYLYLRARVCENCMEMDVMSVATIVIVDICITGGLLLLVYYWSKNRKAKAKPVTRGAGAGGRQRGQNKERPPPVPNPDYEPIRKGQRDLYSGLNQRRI
- method notes: cell-based or functional assay
test readout: CD3E-positive proportion [%] (Avg, n = 2), CD3-stably expressing 293T cells (%)

[
  {
    "binder": "modified TCR ba8 (TCR) TCR alpha: DVYITDKTVLDMRSMDFKSNSAVAWSNKSDFACANAFNNSIIPEDTFFPSPESSCDVKLVEKSFETDTNLNFQNLSVIGFRILLLKVAGFNLLMTLRLWSS TCR beta: EDLKNVFPPEVAVFEPSEAEISHTQKATLVCLATGFYPDHVELSWWVNGKEVHSGVSTDPQPLKEQPALNDSRYCLSSRLRVSATFWQNPRNHFRCQVQFYGLSENDEWTQDRAKPVTQIVSAEAWGRADCGFTSESYQQGVLSATILYEILLGKATLYAVLVSALVLMAMVKRKDSRG",
    "recorded number": 90.3
  }
]

Just for reference, patent US20220062341A1 is where these values come from.
